- study-target: Serine/threonine-protein kinase ULK1 (Homo sapiens, UniProt O75385)
- Sequence (O75385 whole entry): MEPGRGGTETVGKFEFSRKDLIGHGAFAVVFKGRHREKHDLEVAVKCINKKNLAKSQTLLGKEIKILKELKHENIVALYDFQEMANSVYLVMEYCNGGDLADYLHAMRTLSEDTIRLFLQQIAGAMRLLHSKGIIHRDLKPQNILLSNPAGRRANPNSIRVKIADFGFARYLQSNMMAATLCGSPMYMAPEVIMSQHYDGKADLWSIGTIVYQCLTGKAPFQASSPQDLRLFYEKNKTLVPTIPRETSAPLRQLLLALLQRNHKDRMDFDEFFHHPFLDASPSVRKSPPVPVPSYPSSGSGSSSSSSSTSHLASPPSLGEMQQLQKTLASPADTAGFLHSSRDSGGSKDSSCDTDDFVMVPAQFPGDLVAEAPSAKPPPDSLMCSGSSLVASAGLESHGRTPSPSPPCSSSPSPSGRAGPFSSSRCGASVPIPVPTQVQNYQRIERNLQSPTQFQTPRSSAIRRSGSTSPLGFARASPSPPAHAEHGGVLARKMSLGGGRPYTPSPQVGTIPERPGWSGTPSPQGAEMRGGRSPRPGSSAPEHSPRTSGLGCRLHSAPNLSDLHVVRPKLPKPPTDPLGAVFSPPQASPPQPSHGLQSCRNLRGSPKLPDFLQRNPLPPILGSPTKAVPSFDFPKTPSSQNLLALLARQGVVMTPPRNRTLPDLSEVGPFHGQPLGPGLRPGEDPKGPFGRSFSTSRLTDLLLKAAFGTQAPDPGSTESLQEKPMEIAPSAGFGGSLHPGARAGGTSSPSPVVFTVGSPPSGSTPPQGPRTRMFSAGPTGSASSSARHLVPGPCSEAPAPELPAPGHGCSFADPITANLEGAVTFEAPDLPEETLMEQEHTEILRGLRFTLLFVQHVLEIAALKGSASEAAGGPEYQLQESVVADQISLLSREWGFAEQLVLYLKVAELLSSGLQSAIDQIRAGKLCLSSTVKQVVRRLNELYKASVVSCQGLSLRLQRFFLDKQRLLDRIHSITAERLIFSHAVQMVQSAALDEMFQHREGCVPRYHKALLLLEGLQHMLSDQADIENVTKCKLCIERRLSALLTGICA
- method-description: ULK1 inhibition assay: Gamma-32P assays to measure ULK1 kinase activity were performed as previously described. Briefly, Flag ULK1 was transfected into HEK293T cells and 20 hours later treated as indicated. The immmunoprecipitate was washed in IP buffer 3 times, and washed in kinase buffer (25 mM MOPS, pH 7.5, 1 mM EGTA, 0.1 mM Na3VO4, 15 mM MgCl2,). Hot and cold ATP were added at a 100 μM final concentration. As substrates, GST or the recombinant protein GST-Atg101 purified from E. coli were used at 1 μg for each reaction. Reactions were boiled, run out on SDS page gel. The gel was dried, and imaged using PhosphoImager software. For cold assays to asses ULK1, Flag ULK1 which was transiently overexpressed and immunoprecipited from HEK293T cells. Reactions were then run out on SDS page gel, transferred to PVDF membrane and blotted for total levelsFluorescence MicroscopyVps34flox/flox MEFs were reconstituted with Flag-VPS34 and either p40FX or GFP-DFCP1. 48 hours post infection with adenovirus expressing Cre recombinase (MOI of 100), cells were plated on glass coverslips at a density of 3×10^5 cells per well in 6-well tissue culture plates. 18 h later, cells were fixed in 4% PFA in PBS for 10 minutes and permeabilized in 0.2% Triton in PBS for 10 minutes. The following primary antibodies were used: mouse anti-Myc epitope and LC3B XP antibody (2276 and 3868 respectively, Cell Signaling Technologies). Secondary antibodies were anti-rabbit Alexa488 and anti-mouse Alexa594 (Molecular Probes, 1:1000. Cells were then fixed and counter stained with DAPI. Coverslips were mounted in FluoromountG (SouthernBiothech). Images were acquired on a Zeiss Axioplan2 epifluorescence microscope coupled to the Openlab software. Confocal images of mitotracker were taken on Zeiss LSM 710 laser scanning confocal microscope. 10 random fields per condition were acquired using the 100× objective and representative images shown. Glass coverslips were mounted directly on plate with FluoromountG and images taken on Zeiss Axioplan2 epifluorescence microscope.
pIC50: −log10 of the molar value.
So I've got a bunch of compounds here, and I need their pIC50 values.

INPUT: pIC50 lookup needed for `O=C1CCc2cc(Nc3ncc(C(F)(F)F)c(Nc4ccc5c(c4)OCO5)n3)ccc2N1` , thanks.
OUTPUT: > 6.70

INPUT: Next up: `COc1cc(Nc2ncc(Br)c(Oc3ccccc3NC(=O)C(F)(F)F)n2)cc(OC)c1OC`
OUTPUT: > 6.70

INPUT: Next up: `CNC(=O)c1ccc(OC)cc1Oc1ncc(Br)c(Nc2cc(OC)c(OC)c(OC)c2)n1`
OUTPUT: < 5.70

INPUT: Next up: `COc1cc(Nc2ncc(Br)c(Oc3cccc4cccnc34)n2)cc(OC)c1OC`
OUTPUT: < 5.70

INPUT: Next up: `CCN1CCOc2cc(Nc3ncc(C(F)(F)F)c(NC4CC4)n3)cnc21`
OUTPUT: > 6.70

INPUT: Next up: `COc1cccc(Nc2nc(Nc3ccc(OC(F)(F)F)c(Cl)c3)ncc2C(F)(F)F)c1`
OUTPUT: < 5.70

INPUT: Next up: `COc1cc(Nc2ncc(Br)c(Oc3ccccc3CN(C)C)n2)cc(OC)c1OC`
OUTPUT: < 5.70

INPUT: Next up: `O=C(C1CC1)N1CCc2cc(Nc3ncc(C(F)(F)F)c(NC4CC4)n3)ccc2C1`
OUTPUT: > 6.70

INPUT: Next up: `CC(=O)NNc1nc(Nc2ccc3c(c2)CCC(=O)N3)ncc1C(F)(F)F`
OUTPUT: < 5.70

INPUT: Next up: `COc1cc(Nc2ncc(Cl)c(Nc3ccccc3CO)n2)cc(OC)c1OC`
OUTPUT: < 5.70

INPUT: Next up: `CCN1CCOc2cc(Nc3nc(Nc4ccc5c(c4)CCC(=O)N5)ncc3Br)cnc21`
OUTPUT: > 6.70

INPUT: Next up: `COc1cc(Nc2ncc(Br)c(-n3nnc4ccccc43)n2)cc(OC)c1OC`
OUTPUT: < 5.70

INPUT: Next up: `O=C1CCc2cc(Nc3ncc(C(F)(F)F)c(Nc4ccccc4CO)n3)ccc2N1`
OUTPUT: > 6.70

INPUT: Next up: `COc1cc(Nc2ncc(Br)c(Oc3ccccc3NC(=O)C(C)(C)C)n2)cc(OC)c1OC`
OUTPUT: < 5.70

INPUT: Next up: `COc1cc(Nc2ncc(Br)c(Oc3ccccc3CNC(C)=O)n2)cc(OC)c1OC`
OUTPUT: < 5.70
